- Test system: CCRIS mutagenicity, Ames/micronucleus/aberration tests
- testDetails: CCRIS mutagenicity studies
- conditionSummary: Test System: AMES SALMONELLA TYPHIMURIUM; Strain/Indicator: TA98; Metabolic Activation: NONE; Method: PREINCUBATION
Active and inactive are the calls of the source. No rule for the calls is given here.

- compound: "Nc1nc(-c2cccc([N+](=O)[O-])c2)nc2c1ncn2[C@@H]1O[C@H](CO)[C@@H](O)[C@H]1O"
  assayedTarget: "CCRIS mutagenicity, Ames/micronucleus/aberration tests"
  mutagenic call: "inactive; negative"
- compound: "Cc1cccc(Br)c1"
  assayedTarget: "CCRIS mutagenicity, Ames/micronucleus/aberration tests"
  mutagenic call: "inactive; negative"
- compound: "O=c1ccc(=O)[nH][nH]1"
  assayedTarget: "CCRIS mutagenicity, Ames/micronucleus/aberration tests"
  mutagenic call: "inactive; negative"
- compound: "[Cl-].[Cl-].[NH2-].[NH2-].[NH2-].[NH2-].[Pt+2]"
  assayedTarget: "CCRIS mutagenicity, Ames/micronucleus/aberration tests"
  mutagenic call: "inactive; negative"
- compound: "Cc1ccc(N)c(N)c1"
  assayedTarget: "CCRIS mutagenicity, Ames/micronucleus/aberration tests"
  mutagenic call: "inactive; negative"
- compound: "C=CC(=O)OCCN(C)C"
  assayedTarget: "CCRIS mutagenicity, Ames/micronucleus/aberration tests"
  mutagenic call: "inactive; negative"
- compound: "Nc1nc(N)c2nc(-c3ccccc3)c(N)nc2n1"
  assayedTarget: "CCRIS mutagenicity, Ames/micronucleus/aberration tests"
  mutagenic call: "inactive; negative"
- compound: "Cc1cnc(C)c(C)n1"
  assayedTarget: "CCRIS mutagenicity, Ames/micronucleus/aberration tests"
  mutagenic call: "inactive; negative"
- compound: "CCCCCCCCCCCCC/C([O-])=N/[N+](C)(C)CC(C)O (stereo unspecified)"
  assayedTarget: "CCRIS mutagenicity, Ames/micronucleus/aberration tests"
  mutagenic call: "inactive; negative"
- compound: "CCOc1ccc(NC(N)=O)cc1"
  assayedTarget: "CCRIS mutagenicity, Ames/micronucleus/aberration tests"
  mutagenic call: "inactive; negative"
- compound: "CO[C@@H]1C[C@](C)(O)Cc2cc3c(c(O)c21)C(=O)c1c(O)cc2c(c1C3=O)O[C@@H]1O[C@@]2(C)[C@H](O)[C@@H](N(C)C)[C@@H]1O"
  assayedTarget: "CCRIS mutagenicity, Ames/micronucleus/aberration tests"
  mutagenic call: "inactive; negative"
- compound: "CCOc1ccc(N)cc1"
  assayedTarget: "CCRIS mutagenicity, Ames/micronucleus/aberration tests"
  mutagenic call: "inactive; negative"
- compound: "[CH3][Pb]([CH3])([CH3])[CH3]"
  assayedTarget: "CCRIS mutagenicity, Ames/micronucleus/aberration tests"
  mutagenic call: "inactive; negative"
- compound: "Nc1ccnc2ccccc12"
  assayedTarget: "CCRIS mutagenicity, Ames/micronucleus/aberration tests"
  mutagenic call: "inactive; negative"
- compound: "N#CN=C(N)N"
  assayedTarget: "CCRIS mutagenicity, Ames/micronucleus/aberration tests"
  mutagenic call: "inactive; negative"
- compound: "CC(C)Nc1ccc(Nc2ccccc2)cc1"
  assayedTarget: "CCRIS mutagenicity, Ames/micronucleus/aberration tests"
  mutagenic call: "inactive; negative"
- compound: "Cc1cnccn1"
  assayedTarget: "CCRIS mutagenicity, Ames/micronucleus/aberration tests"
  mutagenic call: "inactive; negative"
- compound: "c1cnccn1"
  assayedTarget: "CCRIS mutagenicity, Ames/micronucleus/aberration tests"
  mutagenic call: "inactive; negative"
- compound: "C=CC(=O)O"
  assayedTarget: "CCRIS mutagenicity, Ames/micronucleus/aberration tests"
  mutagenic call: "inactive; negative"
- compound: "O=[N+]([O-])c1ccc(Oc2c(Cl)cc(Cl)cc2Cl)cc1"
  assayedTarget: "CCRIS mutagenicity, Ames/micronucleus/aberration tests"
  mutagenic call: "inactive; negative"
- compound: "NCCCCCCN"
  assayedTarget: "CCRIS mutagenicity, Ames/micronucleus/aberration tests"
  mutagenic call: "inactive; negative"
- compound: "C[C@H](CCC(=O)O)[C@H]1CC[C@H]2[C@@H]3CCc4cc(O)ccc4[C@H]3CC[C@]12C"
  assayedTarget: "CCRIS mutagenicity, Ames/micronucleus/aberration tests"
  mutagenic call: "inactive; negative"
- compound: "C1COCOC1"
  assayedTarget: "CCRIS mutagenicity, Ames/micronucleus/aberration tests"
  mutagenic call: "inactive; negative"
- compound: "O=S1(=O)CC=CC1"
  assayedTarget: "CCRIS mutagenicity, Ames/micronucleus/aberration tests"
  mutagenic call: "inactive; negative"
- compound: "Oc1cccc(O)c1"
  assayedTarget: "CCRIS mutagenicity, Ames/micronucleus/aberration tests"
  mutagenic call: "inactive; negative"
- compound: "N#CCCC(=O)CCc1ccc(C(=O)O)cc1"
  assayedTarget: "CCRIS mutagenicity, Ames/micronucleus/aberration tests"
  mutagenic call: "active; positive"
- compound: "Cc1c(O)cc2c(c1O)C(=O)c1cccc(O)c1C2=O"
  assayedTarget: "CCRIS mutagenicity, Ames/micronucleus/aberration tests"
  mutagenic call: "inactive; negative"
- compound: "OO"
  assayedTarget: "CCRIS mutagenicity, Ames/micronucleus/aberration tests"
  mutagenic call: "inactive; negative"
- compound: "CC(C)S(=O)(=O)Cl"
  assayedTarget: "CCRIS mutagenicity, Ames/micronucleus/aberration tests"
  mutagenic call: "inactive; negative"
- compound: "O=C(O)Nc1ccc(-c2ccccc2)cc1"
  assayedTarget: "CCRIS mutagenicity, Ames/micronucleus/aberration tests"
  mutagenic call: "active; positive"
- compound: "CC(=O)c1cc(NC(=O)Nc2ccc(OCC(O)CNC(C)(C)C)c(C(C)=O)c2)ccc1OCC(O)CNC(C)(C)C (stereo unspecified)"
  assayedTarget: "CCRIS mutagenicity, Ames/micronucleus/aberration tests"
  mutagenic call: "inactive; negative"
- compound: "C=CC(C)=O"
  assayedTarget: "CCRIS mutagenicity, Ames/micronucleus/aberration tests"
  mutagenic call: "inactive; negative"
- compound: "ClCc1c2ccccc2cc2ccccc12"
  assayedTarget: "CCRIS mutagenicity, Ames/micronucleus/aberration tests"
  mutagenic call: "active; positive"
- compound: "Cc1ccc2cccnc2c1"
  assayedTarget: "CCRIS mutagenicity, Ames/micronucleus/aberration tests"
  mutagenic call: "inactive; negative"
- compound: "CC(C)(C)c1ccc(O)c(O)c1"
  assayedTarget: "CCRIS mutagenicity, Ames/micronucleus/aberration tests"
  mutagenic call: "inactive; negative"
- compound: "COC(C)(C)CC(C)=O"
  assayedTarget: "CCRIS mutagenicity, Ames/micronucleus/aberration tests"
  mutagenic call: "inactive; negative"
- compound: "O=[N+]([O-])c1ccc2sc3ccccc3c2c1"
  assayedTarget: "CCRIS mutagenicity, Ames/micronucleus/aberration tests"
  mutagenic call: "active; positive"
- compound: "Cc1cc(-c2ccc(N=Nc3cc(S(=O)(=O)O)c4ccccc4c3N)c(C)c2)ccc1N=Nc1cc(S(=O)(=O)O)c2ccccc2c1N"
  assayedTarget: "CCRIS mutagenicity, Ames/micronucleus/aberration tests"
  mutagenic call: "inactive; negative"
- compound: "CC(C)(C)C1=CC(=CC=C2C=C(C(C)(C)C)C(=O)C(C(C)(C)C)=C2)C=C(C(C)(C)C)C1=O"
  assayedTarget: "CCRIS mutagenicity, Ames/micronucleus/aberration tests"
  mutagenic call: "inactive; negative"
- compound: "Cc1ccc(N=Nc2ccc(C)c(N)c2)cc1N"
  assayedTarget: "CCRIS mutagenicity, Ames/micronucleus/aberration tests"
  mutagenic call: "inactive; negative"
- compound: "CN(C)c1cccc(O)c1"
  assayedTarget: "CCRIS mutagenicity, Ames/micronucleus/aberration tests"
  mutagenic call: "inactive; negative"
- compound: "O=S(=O)(O)OCc1c2ccccc2c2ccc3cccc4ccc1c2c43"
  assayedTarget: "CCRIS mutagenicity, Ames/micronucleus/aberration tests"
  mutagenic call: "active; positive"
- compound: "O=C(O)[C@H]1OC(Oc2c3ccccc3c3ccc4cccc5ccc2c3c54)[C@H](O)[C@@H](O)[C@@H]1O (stereo partly specified)"
  assayedTarget: "CCRIS mutagenicity, Ames/micronucleus/aberration tests"
  mutagenic call: "inactive; negative"
- compound: "COc1ccc(Cc2cnc(N)nc2N)cc1OC"
  assayedTarget: "CCRIS mutagenicity, Ames/micronucleus/aberration tests"
  mutagenic call: "inactive; negative"
- compound: "CN(Cc1cnc2nc(N)nc(N)c2n1)c1c(Cl)cc(C(=O)N[C@@H](CCC(=O)O)C(=O)O)cc1Cl"
  assayedTarget: "CCRIS mutagenicity, Ames/micronucleus/aberration tests"
  mutagenic call: "inactive; negative"
- compound: "ClC1=C(Cl)[C@]2(Cl)[C@H]3[C@H]([C@@H]4C=C[C@H]3C4)[C@@]1(Cl)C2(Cl)Cl"
  assayedTarget: "CCRIS mutagenicity, Ames/micronucleus/aberration tests"
  mutagenic call: "inactive; negative"
- compound: "O=C(O)C1C(C(=O)O)C2(Cl)C(Cl)=C(Cl)C1(Cl)C2(Cl)Cl (stereo unspecified)"
  assayedTarget: "CCRIS mutagenicity, Ames/micronucleus/aberration tests"
  mutagenic call: "inactive; negative"
- compound: "Clc1cccc(Cl)c1NC1=NCCN1"
  assayedTarget: "CCRIS mutagenicity, Ames/micronucleus/aberration tests"
  mutagenic call: "inactive; negative"
- compound: "O=C(O)C1=NN(c2ccc(S(=O)(=O)O)cc2)C(=O)C1N=Nc1ccc(S(=O)(=O)O)cc1.[Al] (stereo unspecified)"
  assayedTarget: "CCRIS mutagenicity, Ames/micronucleus/aberration tests"
  mutagenic call: "inactive; negative"
- compound: "NS(=O)(=O)c1cc2c(cc1Cl)NC=NS2(=O)=O"
  assayedTarget: "CCRIS mutagenicity, Ames/micronucleus/aberration tests"
  mutagenic call: "inactive; negative"
- compound: "O=C(CCl)c1ccccc1"
  assayedTarget: "CCRIS mutagenicity, Ames/micronucleus/aberration tests"
  mutagenic call: "inactive; negative"
- compound: "Cc1cc(O)c2c(c1O)C(=O)c1ccccc1C2=O"
  assayedTarget: "CCRIS mutagenicity, Ames/micronucleus/aberration tests"
  mutagenic call: "inactive; negative"
- compound: "CC1=CC(=O)c2ccccc2C1=O"
  assayedTarget: "CCRIS mutagenicity, Ames/micronucleus/aberration tests"
  mutagenic call: "inactive; negative"
- compound: "CCCCOCCOCCO"
  assayedTarget: "CCRIS mutagenicity, Ames/micronucleus/aberration tests"
  mutagenic call: "inactive; negative"
- compound: "Cc1ccc2ncccc2c1"
  assayedTarget: "CCRIS mutagenicity, Ames/micronucleus/aberration tests"
  mutagenic call: "inactive; negative"
- compound: "O=[N+]([O-])c1ccccc1Br"
  assayedTarget: "CCRIS mutagenicity, Ames/micronucleus/aberration tests"
  mutagenic call: "inactive; negative"
